tested-on: CDK1/cyclin B (Homo sapiens)
Sequence (P06493 whole entry, species assumed): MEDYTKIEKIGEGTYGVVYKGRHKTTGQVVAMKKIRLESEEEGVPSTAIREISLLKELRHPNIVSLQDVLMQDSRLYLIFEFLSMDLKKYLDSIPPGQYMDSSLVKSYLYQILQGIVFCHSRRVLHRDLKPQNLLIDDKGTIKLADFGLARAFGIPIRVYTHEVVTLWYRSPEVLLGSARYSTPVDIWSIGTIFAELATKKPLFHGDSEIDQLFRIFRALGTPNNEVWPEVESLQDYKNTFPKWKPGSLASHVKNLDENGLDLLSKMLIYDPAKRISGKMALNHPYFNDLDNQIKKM
Sequence (P14635 whole entry partner, species assumed): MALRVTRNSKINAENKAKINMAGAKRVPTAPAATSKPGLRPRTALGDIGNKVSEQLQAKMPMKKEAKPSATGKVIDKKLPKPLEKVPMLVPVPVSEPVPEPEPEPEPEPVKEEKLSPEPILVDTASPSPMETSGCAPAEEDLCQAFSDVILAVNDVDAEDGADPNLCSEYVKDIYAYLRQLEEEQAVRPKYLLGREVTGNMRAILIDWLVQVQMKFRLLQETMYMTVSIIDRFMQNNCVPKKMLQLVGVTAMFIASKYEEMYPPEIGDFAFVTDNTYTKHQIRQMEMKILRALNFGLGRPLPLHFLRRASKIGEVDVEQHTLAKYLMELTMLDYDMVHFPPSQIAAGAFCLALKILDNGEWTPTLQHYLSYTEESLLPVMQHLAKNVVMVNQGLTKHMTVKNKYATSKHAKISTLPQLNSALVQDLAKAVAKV
protocol-details: Kinase assay, radioactive phosphate incorporation, CDK1/cyclin B
study-conditions: 100 μM ATP, 30° C.; read-out: Kinase inhibition IC50 CDK1/cyclin B
Experimental: The compounds from the examples above were investigated for their ability to inhibit the enzymatic activity of various protein kinases. This was achieved by measurement of incorporation of radioactive phosphate from ATP into appropriate polypeptide substrates. […] After washing 3 times with 75 mM aq orthophosphoric acid, plates were dried, scintillant added and incorporated radioactivity measured in a scintillation counter (TopCount, Packard Instruments, Pangbourne, Berks, UK). […]
quantity-measured: IC50 (µM)

                                   compound                     tested_on  quantity_measured  unit_label  endpoint_result
0  O=[N+]([O-])c1cccc(Nc2nccc(-c3cccc(CN4CCCC(CCO)C4)c3)n2)c1 (centres unmarked)  CDK1/cyclin B (Homo sapiens)               IC50          µM              1.2
1  O=[N+]([O-])c1cccc(Nc2nccc(-c3cccc(CN4CCCCC4CO)c3)n2)c1 (centres unmarked)  CDK1/cyclin B (Homo sapiens)               IC50          µM             0.15
2  CN(C)c1ccc(Nc2nccc(-c3ccc(Cl)c(Cl)c3)n2)cc1  CDK1/cyclin B (Homo sapiens)               IC50          µM              3.9
3       COc1ccc(-c2ccnc(Nc3ccc(O)cc3)n2)cc1  CDK1/cyclin B (Homo sapiens)               IC50          µM              0.5
4  O=[N+]([O-])c1cccc(Nc2nccc(-c3cccc(CO)c3)n2)c1  CDK1/cyclin B (Homo sapiens)               IC50          µM             0.59

P. CN(c1cccc(-c2ccnc(Nc3cccc([N+](=O)[O-])c3)n2)c1)S(C)(=O)=O
Q. CCN(CC)Cc1cccc(-c2ccnc(Nc3cccc([N+](=O)[O-])c3)n2)c1
R. COc1ccc(Nc2nccc(-c3cccc(CN(C)C)c3)n2)cn1
S. CN(c1cccc(-c2ccnc(Nc3ccc(O)cc3)n2)c1)S(C)(=O)=O
*Q* Arrange by IC50, high to low. List each label, following the requested order.
*A* S, P, R, Q

I. N#Cc1cccc(-c2ccnc(Nc3ccc(O)cc3)n2)c1
II. CCNc1cccc(-c2ccnc(Nc3ccc(OC)cc3)n2)c1
III. CN(C)Cc1cccc(-c2ccnc(Nc3cccc(O)c3)n2)c1
*Q* Hi! Can you put these in order of IC50, lowest number first? Put the labels in the order asked and list them.
*A* II, III, I

I. OCc1cccc(Nc2nccc(-c3cccc(O)c3)n2)c1
II. COc1ccc(Nc2nccc(-c3cccc(Cn4cncn4)c3)n2)cc1
III. O=[N+]([O-])c1cccc(Nc2nccc(-c3cccc(CN4CCCC(CO)C4)c3)n2)c1 (centres unmarked)
*Q* With regard to IC50, arrange the entries in ascending order, please. Answer format: list of labels, ordered as asked.
*A* I, III, II
(I: 0.15 µM, III: 1.2 µM, II: 11 µM)

1. COc1ccc(Nc2nccc(-c3cccc(Cn4ccnc4)c3)n2)cn1
2. Oc1cccc(Nc2nccc(-c3cccc(Cl)c3)n2)c1
*Q* When their IC50 values are compared, which is larger, 1 or 2 ? Refer to your chosen entry by its label in the reply.
*A* 2
